- tested-system: ABL2 (Homo sapiens, UniProt P42684)
- Construct: endogenous in cells
- Sequence (P42684 whole entry): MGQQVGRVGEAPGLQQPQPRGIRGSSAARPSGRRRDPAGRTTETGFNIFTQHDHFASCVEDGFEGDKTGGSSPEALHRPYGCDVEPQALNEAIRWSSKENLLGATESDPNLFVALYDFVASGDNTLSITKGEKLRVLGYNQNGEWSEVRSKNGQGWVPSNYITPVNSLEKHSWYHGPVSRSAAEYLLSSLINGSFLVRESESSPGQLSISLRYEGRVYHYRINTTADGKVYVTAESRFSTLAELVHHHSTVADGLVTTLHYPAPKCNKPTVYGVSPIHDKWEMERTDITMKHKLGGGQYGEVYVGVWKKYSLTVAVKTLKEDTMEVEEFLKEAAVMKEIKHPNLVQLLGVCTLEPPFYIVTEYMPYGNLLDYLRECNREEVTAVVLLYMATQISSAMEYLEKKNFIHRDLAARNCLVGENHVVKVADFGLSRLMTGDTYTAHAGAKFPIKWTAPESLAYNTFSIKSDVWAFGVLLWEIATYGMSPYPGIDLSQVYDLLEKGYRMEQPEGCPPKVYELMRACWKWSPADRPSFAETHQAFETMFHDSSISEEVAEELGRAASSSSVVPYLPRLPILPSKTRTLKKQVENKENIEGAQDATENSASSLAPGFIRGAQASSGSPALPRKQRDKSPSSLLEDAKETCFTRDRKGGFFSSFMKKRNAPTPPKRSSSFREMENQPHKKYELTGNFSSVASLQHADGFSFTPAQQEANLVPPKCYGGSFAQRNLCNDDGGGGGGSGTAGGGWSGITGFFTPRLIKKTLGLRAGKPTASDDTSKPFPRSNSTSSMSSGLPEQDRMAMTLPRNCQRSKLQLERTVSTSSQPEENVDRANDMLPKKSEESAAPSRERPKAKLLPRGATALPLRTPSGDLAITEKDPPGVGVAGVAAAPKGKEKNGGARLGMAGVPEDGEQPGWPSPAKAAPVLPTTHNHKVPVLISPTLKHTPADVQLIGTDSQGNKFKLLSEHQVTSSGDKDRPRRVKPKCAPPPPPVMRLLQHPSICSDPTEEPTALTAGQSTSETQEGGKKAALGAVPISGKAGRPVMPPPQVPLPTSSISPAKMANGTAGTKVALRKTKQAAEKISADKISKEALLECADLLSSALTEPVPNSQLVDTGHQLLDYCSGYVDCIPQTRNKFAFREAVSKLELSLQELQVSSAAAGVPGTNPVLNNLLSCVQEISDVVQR
- assay-notes: Kinobeads two-dose competition binding: ABL2
- condition-description: sheet CATDS matrix 2; Gene Name ABL2
The reader will find reported CATDS values listed item by item below.

Sample answers from the record:
{"compound": "CNC(=O)c1ccccc1Nc1nc(Nc2cccc(CS(C)(=O)=O)c2)ncc1C [GSK1520489A]", "CATDS": 0.01375}
{"compound": "O=C(Nc1c(F)cccc1F)c1cc(C(=O)c2ccccc2F)c[nH]1 [GSK1326180A]", "CATDS": 0}
{"compound": "C#Cc1cccc(Nc2ncnc3cc(OC)c(OC4CCN(C)CC4)cc23)c1 [BI00007366]", "CATDS": 0}
{"compound": "CNc1nc(-c2ccc3c(N)n[nH]c3c2)cc(N2C[C@@H](C(=O)Nc3ccccc3)CC[C@H]2C)n1 [GSK2298859A]", "CATDS": 0}
{"compound": "O=c1[nH]ccc2nc(N[C@@H]3CCCNC3)nc(Nc3ccc(S(=O)(=O)N4CCOCC4)cc3)c12 [GSK2177277A]", "CATDS": 0}
{"compound": "Cc1occc1-c1nc(N)c(OC[C@@H](N)Cc2c[nH]c3ccccc23)cc1-c1cc2c(C)n[nH]c2cn1 [GSK1660450B]", "CATDS": 0}
{"compound": "Cc1cn(-c2cc(NC(=O)c3ccc4c(c3)CN(c3cncnc3)C[C@@H]4C)cc(C(F)(F)F)c2)cn1 [Compound D2202-1]", "CATDS": 0}

Prompt: Using the record for O=c1cc(N2CCOCC2)nc2n(Cc3cccc(Cl)c3)ccn12 [GSK2296823A] , report its CATDS.
Response: 0

---

- tested-system: endogenous kinases and other proteins enriched by Kinobeads from mixed cancer cell lysates (Homo sapiens, UniProt O94806)
- Construct: endogenous in cells
- Sequence (O94806 whole entry): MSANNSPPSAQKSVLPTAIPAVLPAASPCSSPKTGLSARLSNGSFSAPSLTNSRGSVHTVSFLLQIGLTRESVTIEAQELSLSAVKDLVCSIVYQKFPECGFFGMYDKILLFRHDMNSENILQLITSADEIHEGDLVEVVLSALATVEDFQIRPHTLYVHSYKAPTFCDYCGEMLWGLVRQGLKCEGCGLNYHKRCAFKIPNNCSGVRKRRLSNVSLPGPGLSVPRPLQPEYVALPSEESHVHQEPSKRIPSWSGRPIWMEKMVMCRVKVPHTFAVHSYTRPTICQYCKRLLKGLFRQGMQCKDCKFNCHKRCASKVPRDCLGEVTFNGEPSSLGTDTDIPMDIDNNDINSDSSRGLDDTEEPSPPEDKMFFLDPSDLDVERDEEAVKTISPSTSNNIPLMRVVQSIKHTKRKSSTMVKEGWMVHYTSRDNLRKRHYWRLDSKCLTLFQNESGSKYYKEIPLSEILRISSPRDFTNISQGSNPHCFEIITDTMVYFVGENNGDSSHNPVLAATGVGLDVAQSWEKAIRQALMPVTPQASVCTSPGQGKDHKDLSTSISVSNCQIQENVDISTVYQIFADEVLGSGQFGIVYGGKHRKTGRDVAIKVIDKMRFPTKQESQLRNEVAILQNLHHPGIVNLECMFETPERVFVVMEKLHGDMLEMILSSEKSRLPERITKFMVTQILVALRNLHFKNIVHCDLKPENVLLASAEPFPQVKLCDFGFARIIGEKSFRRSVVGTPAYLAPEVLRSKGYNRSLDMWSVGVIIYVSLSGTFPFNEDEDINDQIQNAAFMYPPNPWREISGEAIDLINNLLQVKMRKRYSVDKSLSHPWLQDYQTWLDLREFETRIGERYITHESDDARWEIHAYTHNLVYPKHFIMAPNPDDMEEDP
- assay-notes: Kinobeads pulldown, full dose-response (eight doses);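 also: competition with Kinobeads ε after inhibitor preincubation in lysate (5 mg/ml protein) for 45 min at 4 °C, DMSO control, doses 0.3–1,000 nM, label-free LC–MS/MS quantification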
- Type: binding
- condition-description: target PRKD3
property-name: EC50

Prompt: Using the record for Cn1cc(-c2nc(N[C@@H]3CCCC[C@@H]3N)c(F)c3c2C(=O)NC3)cn1 [TAK659] , report its EC50.
Response: 1410 nM

---

- tested-system: UniProtKB Q6P5Z2
- Sequence (Q6P5Z2 whole entry): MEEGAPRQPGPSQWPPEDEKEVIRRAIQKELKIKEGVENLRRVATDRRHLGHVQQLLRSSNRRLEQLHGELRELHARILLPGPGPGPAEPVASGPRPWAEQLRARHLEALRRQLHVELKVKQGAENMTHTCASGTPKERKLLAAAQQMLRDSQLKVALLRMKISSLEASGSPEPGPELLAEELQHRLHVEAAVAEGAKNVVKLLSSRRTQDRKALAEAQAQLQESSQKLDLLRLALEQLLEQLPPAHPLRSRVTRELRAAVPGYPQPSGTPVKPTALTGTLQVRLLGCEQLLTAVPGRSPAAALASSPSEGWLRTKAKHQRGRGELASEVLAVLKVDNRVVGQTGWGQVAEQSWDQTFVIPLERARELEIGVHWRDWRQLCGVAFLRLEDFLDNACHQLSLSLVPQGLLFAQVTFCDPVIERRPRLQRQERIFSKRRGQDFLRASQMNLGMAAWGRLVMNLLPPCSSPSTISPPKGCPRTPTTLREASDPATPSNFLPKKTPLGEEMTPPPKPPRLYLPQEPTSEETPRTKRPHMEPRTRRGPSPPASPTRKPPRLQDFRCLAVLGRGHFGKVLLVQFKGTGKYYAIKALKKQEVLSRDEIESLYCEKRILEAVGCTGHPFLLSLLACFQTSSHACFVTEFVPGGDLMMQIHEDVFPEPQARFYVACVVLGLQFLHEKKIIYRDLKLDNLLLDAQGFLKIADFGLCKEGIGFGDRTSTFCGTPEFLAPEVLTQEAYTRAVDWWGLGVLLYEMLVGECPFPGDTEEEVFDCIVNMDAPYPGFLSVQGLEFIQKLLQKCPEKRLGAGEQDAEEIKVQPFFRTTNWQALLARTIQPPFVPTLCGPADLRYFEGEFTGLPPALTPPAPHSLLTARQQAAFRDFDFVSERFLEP
- assay-notes: NanoBRET in-cell target engagement in HEK293T cells: PKN3;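 also: Full-length PKN3 with C-terminal NanoLuc expressed in HEK293T cells, serial inhibitor dilutions competing against Kinase Tracer K5 at 500 nM, BRET read after 2 h at 37 °C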
- Format: cell-based
- Parameters: full-length PKN3, CSNK2A1 or CSNK2A2 ORF; host or cells: HEK293T
- condition-description: biological replicate number 4; read-out: Rep 4 IC50 NanoBRET PKN3
IC50 less than 200 nM is Condition met; IC50 greater than or equal to 200 nM is Condition not met.

Would you please look over these solved cases?
{"molecule": "COc1cccc2c(-c3ccncc3)c(-c3ccc(F)cc3)nn12 [GW468513X]", "tested-system": "UniProtKB Q6P5Z2", "label-class": "Condition met"}
{"molecule": "CCn1c(-c2nonc2N)nc2c(C#CC(C)(C)O)nc(OCCN)cc21 [GSK902056A]", "tested-system": "UniProtKB Q6P5Z2", "label-class": "Condition met"}
{"molecule": "Cc1cccc2c(-c3ccncn3)c(-c3ccc(F)cc3)nn12 [GW515532X]", "tested-system": "UniProtKB Q6P5Z2", "label-class": "Condition not met"}
{"molecule": "CNc1ncc2cc(-c3cc(NC(=O)NCCC(C)(C)C)c(F)cc3C)c(C)nc2n1 [LY3009120, reference compound]", "tested-system": "UniProtKB Q6P5Z2", "label-class": "Condition met"}
{"molecule": "Cc1cccc(-c2nc(Nc3ccncc3)c3sccc3n2)n1 [GW869641X]", "tested-system": "UniProtKB Q6P5Z2", "label-class": "Condition met"}
{"molecule": "CCn1c(-c2nonc2N)nc2c(C#CCN)ncc(OCCCN)c21 [GSK561866B]", "tested-system": "UniProtKB Q6P5Z2", "label-class": "Condition not met"}
{"molecule": "NCc1ccc(-c2nc(-c3ccncc3)c(-c3ccc(Cl)c(O)c3)[nH]2)cc1 [SB-476429-A]", "tested-system": "UniProtKB Q6P5Z2", "label-class": "Condition met"}

Continue with the next molecule.
Prompt: Take the molecule Fc1ccc(-c2c(-c3ccncc3)[nH]c3cccnc23)cc1 [RO1153853-000] and say whether its IC50 is less than 200 nM.
Response: Condition not met
